Assay: solvent given as SMILES
Conditions: in CC1CCCCC1
Criterion: fluorescence lifetime strictly less than 1 ns. Met: Condition met. Not met: Condition not met.

>>> group_label("CC(C)(C)c1ccc2cc3c4cccc5cccc(c6cc(C(C)(C)C)cc(c2c1)c63)c54")
"Condition not met"
>>> group_label("COC(=O)C(NC(=O)OC(C)(C)C)c1ccc2oc(-c3ccc(C#N)cc3)nc2c1 (stereo not drawn)")
"Condition not met"
>>> group_label("c1ccc2c(c1)Sc1ccc(-n3c4ccccc4c4ccccc43)cc1S2")
"Condition not met"
>>> group_label("CCN(CC)c1ccc(-c2nc3cc(C(NC(=O)OC(C)(C)C)C(=O)OC)ccc3o2)c(O)c1 (stereo not drawn)")
"Condition met"
>>> group_label("COC(=O)C(NC(=O)OC(C)(C)C)c1ccc2oc(-c3ccc(OC(=O)c4ccccc4)cc3O)nc2c1 (stereo not drawn)")
"Condition met"
>>> group_label("C=CCOc1ccc(-c2nc3cc(C(NC(=O)OC(C)(C)C)C(=O)OC)ccc3o2)cc1 (stereo not drawn)")
"Condition not met"
>>> group_label("COC(=O)C(Cc1ccc2oc(-c3ccncc3)nc2c1)NC(=O)OC(C)(C)C (stereo not drawn)")
"Condition met"
>>> group_label("COC(=O)C(NC(=O)OC(C)(C)C)c1ccc2oc(-c3ccc(F)cc3)nc2c1 (stereo not drawn)")
"Condition not met"

---

Each item that follows carries a reported log10 of fluorescence lifetime.
Assay: solvent given as SMILES
Details: in O
Property: log10 of fluorescence lifetime (log10 of the value in ns)

>>> reported_value("O=C1CCCc2c1[nH]c1cc3c(cc21)OCO3")
0.36
>>> reported_value("Nc1ccc2ccc(O)cc2c1")
0.89
>>> reported_value("O=C(O)CCCCCn1c2ccccc2c(=O)c2ccccc21")
1.15
>>> reported_value("NNC(=O)N1C(=O)c2cc(S(=O)(=O)[O-])cc3c(N)c(S(=O)(=O)[O-])cc(c23)C1=O")
0.76
>>> reported_value("CN(C)CCCN1c2ccccc2CCc2ccc(Cl)cc21")
-0.74
>>> reported_value("CNCCCC1c2ccccc2C=Cc2ccccc21")
0.41
>>> reported_value("CCN(CC)c1ccc2c(-c3ccc(S(=O)(=O)O)cc3S(=O)(=O)[O-])c3ccc(=[N+](CC)CC)cc-3oc2c1")
0.25
>>> reported_value("O=C(O)CCCCCn1c2ccccc2c(=O)c2cc(S(=O)(=O)O)ccc21")
1.11
>>> reported_value("N#Cc1cc(-c2ccc(F)cc2)cnc1O")
0.73
>>> reported_value("N#Cc1ccc2cc[nH]c2c1")
-0.22
>>> reported_value("CCN(CC)c1ccc2c(C)cc(=O)oc2c1")
-0.44
>>> reported_value("COc1ccc2ccc(O)cc2c1")
0.92
>>> reported_value("CC1(C)C(/C=C/C2=C(Cl)C(=C/C=C3/N(CCCCS(=O)(=O)[O-])c4ccc5ccccc5c4C3(C)C)/CCC2)=[N+](CCCCS(=O)(=O)[O-])c2ccc3ccccc3c21")
-0.89
>>> reported_value("CC(=O)OC[C@@H]1O[C@H](N2C=CC3=Nc4nc(C)[n+](C)cc4CN3C2=O)[C@@H](O)[C@H]1O")
0.02
>>> reported_value("O=C([O-])c1ccc(C(=O)[O-])c(C2=c3cc4c5c(c3Oc3c2cc2c6c3CCCN6CCC2)CCC[N+]=5CCC4)c1")
0.68
>>> reported_value("COc1cc(OC)cc(-c2ccc(-c3ccc(C#N)s3)s2)c1")
0.01
